Where do these numbers come from? They come from patent US20220073604A1.

Biological target: IL-6 (bact-hIL-6, euk-hIL-6 and bact-cy IL-6; 'average binding' of Table 21)
Experiment: average binding level in the off-rate screen (unit not given; n = 3)
A collection of binders and their measured average binding
Respond with the number and no other words.

Below: 3 binders and their reported average binding.
# BINDER, READOUT_NUMBER
data = [
    ("Fab 111A7 with the CDR3 methionine changed to G (Fab, V domains shown) VH: EVQLLESGGGLVQPGGSLRLSCAASGFTFSSYAMSWVRQAPGKGPEWVSRISAGGGSTYYGDSVKGRFTISRDNSKNTLYLQMNSLRAEDTAVYYCANRAGWGGGDYWGQGTLVTVSS VL: QTVVTQEPSFSVSPGGTVTLTCGLSSGSVTASNYPGWYQQTPGQAPRALIYSTNDRHSGVPDRFSGSISGNKAALTITGAQAEDEADYYCALDIGDITEFGGGTQLTVL", 109),
    ("Fab 111A7 with the CDR3 methionine changed to D (Fab, V domains shown) VH: EVQLLESGGGLVQPGGSLRLSCAASGFTFSSYAMSWVRQAPGKGPEWVSRISAGGGSTYYGDSVKGRFTISRDNSKNTLYLQMNSLRAEDTAVYYCANRAGWGDGDYWGQGTLVTVSS VL: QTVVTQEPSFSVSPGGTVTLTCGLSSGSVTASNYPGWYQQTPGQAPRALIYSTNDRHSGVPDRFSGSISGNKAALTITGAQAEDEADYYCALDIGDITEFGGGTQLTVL", 112),
    ("Fab 111A7 with the CDR3 methionine changed to Y (Fab, V domains shown) VH: EVQLLESGGGLVQPGGSLRLSCAASGFTFSSYAMSWVRQAPGKGPEWVSRISAGGGSTYYGDSVKGRFTISRDNSKNTLYLQMNSLRAEDTAVYYCANRAGWGYGDYWGQGTLVTVSS VL: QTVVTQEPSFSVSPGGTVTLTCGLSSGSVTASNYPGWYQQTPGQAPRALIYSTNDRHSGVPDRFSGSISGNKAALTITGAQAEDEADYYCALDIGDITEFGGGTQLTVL", 104),
]

Now consider the entry below.
For record Fab 111A7M_A (CMC optimized variant of Fab 111A7, CDR3 methionine to alanine) (Fab, V domains shown, Fab; The VL is that of 111A7; also called M98X: A) VH: EVQLLESGGGLVQPGGSLRLSCAASGFTFSSYAMSWVRQAPGKGPEWVSRISAGGGSTYYGDSVKGRFTISRDNSKNTLYLQMNSLRAEDTAVYYCANRAGWGAGDYWGQGTLVTVSS VL: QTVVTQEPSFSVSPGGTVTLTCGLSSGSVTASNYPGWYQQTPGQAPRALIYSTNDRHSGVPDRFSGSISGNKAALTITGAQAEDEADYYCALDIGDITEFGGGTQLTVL the listed average binding is 102
